Conditions: in n-propanol, 293.15 K
recorded.endpoint: solubility (mole fraction)
The reply should be a number, written without any unit.

stdin: Using the record for CC1(C)O[C@@H]2[C@@H](CO[C@@]3(COS(N)(=O)=O)OC(C)(C)O[C@@H]23)O1 , report its solubility (mole fraction).
stdout: 0.0148

---

Conditions: in n-butanol, 308.15 K
recorded.endpoint: solubility (mole fraction)
The reply should be a number, written without any unit.

stdin: Using the record for CC1(C)O[C@@H]2[C@@H](CO[C@@]3(COS(N)(=O)=O)OC(C)(C)O[C@@H]23)O1 , report its solubility (mole fraction).
stdout: 0.0231

---

Details: in methanol, 278.15 K
recorded.endpoint: solubility (mole fraction)
The reply should be a number, written without any unit.

stdin: Using the record for CC1(C)O[C@@H]2[C@@H](CO[C@@]3(COS(N)(=O)=O)OC(C)(C)O[C@@H]23)O1 , report its solubility (mole fraction).
stdout: 0.0401

---

Settings: in 2-ethoxyethanol, 288.15 K
recorded.endpoint: solubility (mole fraction)
The reply should be a number, written without any unit.

stdin: Using the record for CC1(C)O[C@@H]2[C@@H](CO[C@@]3(COS(N)(=O)=O)OC(C)(C)O[C@@H]23)O1 , report its solubility (mole fraction).
stdout: 0.126

---

Settings: in isopentanol, 293.15 K
recorded.endpoint: solubility (mole fraction)
The reply should be a number, written without any unit.

stdin: Using the record for CC1(C)O[C@@H]2[C@@H](CO[C@@]3(COS(N)(=O)=O)OC(C)(C)O[C@@H]23)O1 , report its solubility (mole fraction).
stdout: 0.00684

---

Conditions: in ethanol, 293.15 K
recorded.endpoint: solubility (mole fraction)

stdin: Using the record for CC1(C)O[C@@H]2[C@@H](CO[C@@]3(COS(N)(=O)=O)OC(C)(C)O[C@@H]23)O1 , report its solubility (mole fraction).
stdout: 0.0315

---

Conditions: in 2-ethoxyethanol, 278.15 K
recorded.endpoint: solubility (mole fraction)
The reply should be a number, written without any unit.

stdin: Using the record for CC1(C)O[C@@H]2[C@@H](CO[C@@]3(COS(N)(=O)=O)OC(C)(C)O[C@@H]23)O1 , report its solubility (mole fraction).
stdout: 0.11

---

Settings: in 2-butoxyethanol, 278.15 K
recorded.endpoint: solubility (mole fraction)

stdin: Using the record for CC1(C)O[C@@H]2[C@@H](CO[C@@]3(COS(N)(=O)=O)OC(C)(C)O[C@@H]23)O1 , report its solubility (mole fraction).
stdout: 0.0541

---

Conditions: in n-butanol, 313.15 K
recorded.endpoint: solubility (mole fraction)
The reply should be a number, written without any unit.

stdin: Using the record for CC1(C)O[C@@H]2[C@@H](CO[C@@]3(COS(N)(=O)=O)OC(C)(C)O[C@@H]23)O1 , report its solubility (mole fraction).
stdout: 0.0298

---

Conditions: in n-butanol, 323.15 K
recorded.endpoint: solubility (mole fraction)

stdin: Using the record for CC1(C)O[C@@H]2[C@@H](CO[C@@]3(COS(N)(=O)=O)OC(C)(C)O[C@@H]23)O1 , report its solubility (mole fraction).
stdout: 0.0538

---

Conditions: in n-heptanol, 298.15 K
recorded.endpoint: solubility (mole fraction)

stdin: Using the record for CC1(C)O[C@@H]2[C@@H](CO[C@@]3(COS(N)(=O)=O)OC(C)(C)O[C@@H]23)O1 , report its solubility (mole fraction).
stdout: 0.00686
